Recorded values, source PubChem BioAssay (NCI).

# Test system: MDA-MB-435 melanoma
# experiment: NCI-60 one-dose screen, 48 h (100 = growth as untreated, 0 = no growth, -100 = all killed)
# assay setup: 10 µM unless noted
This is part of a sample that, as a whole, favours compounds with a hit. Of some 83,000 tested, about 20% had one in any assay.
Reported growth is given for each of the following compounds.
Numeric answer only, unit % assumed.

Solved cases (3 shown):
compound	endpoint unit	growth
NC(=S)N/N=C(\c1ccc(Cl)cc1)C1CC1	%	93.8
O=C(O)CCCCCCCCCCCCCCC(=O)O	%	109
O=C(Nc1cccc(Cl)c1)Oc1c(Br)c(Br)c(Br)c(Br)c1Br	%	99.8

q: # get_value(readout='growth', item= C=C(C)[C@H]1CC/C(C)=C/CC[C@]2(C)O[C@H]2CC/C(COC(=O)[C@@H](OC(C)=O)[C@H](NC(=O)c2ccccc2)c2ccccc2)=C\[C@@H]1O )
a: 92.3

q: Item: COc1ccc(C2=NN(C(C)=O)C(c3cn(Cc4ccc(Cl)cc4)c4ccccc34)C2)cc1 (stereo not drawn)
a: 96.5

q: Item: Cc1ccc2[nH]c(=S)n(-c3ccc(S(=O)(=O)Nc4ccc(Cl)nn4)cc3)c(=O)c2c1
a: 102

q: Item: O=C1CCCN1c1cccc2cccnc12
a: 100

q: Item: CSc1nc(O)c(-c2ccccc2)c(=O)[nH]1
a: 101
